Tested on: H1 or H9 human embryonic stem cells
Test: Activin A bioassay: differentiation of human embryonic stem cells to definitive endoderm, cell number and SOX17 intensity by high content analysis (96-well, four days)
Assay type: cell-based
Conditions: supernatant concentration 1x, assay dilution 1:20; control = R&D Sys Activin A 100 ng/ml on same plate
Quantity: Sox 17 Intensity % of control (%)
Numeric only. Scale: %

// worked examples, Sox 17 Intensity % of control included
Molecule	Sox 17 Intensity % of control / %
ACTN5: activin A variant peptide, SEQ ID 6 (protein) GLECDGKVNYCCKKQNFVSFKDIGWNDWIIAPSGYHANECSGKCPSHIAGTSGSSLSFHSTVINHYRMRGHSPFSNLGACCIPTKLRPMSMLYYDDGQNIIKKDIQNMIVEECGCS	6.0
ACTN45: activin A variant peptide, SEQ ID 46 (protein) GLECDGKVNTCCKKQNFVSFKDIGWNDWIIAPSGYHANECSGKCPSHIAGTSGSSLSFHSTVINHYRMRGHSPFANMGACCIPTKLRPMSMLYYDDGQNIIKKDIQNMIVEECGCS	1.6

Now examine the next entry.
Exercise: Give its Sox 17 Intensity % of control value. Item: ACTN57: activin A variant peptide, SEQ ID 58 (protein) GLECDGKVNICCKKQSFGQAKDIGWNDWIIAPSGYHGGGCSGECPSHIAGTSGSSLSFHSTVINHYRMRGHSPWANLKSCCSPTKLRPMSMLYYDDGQNIIKKDIQNMKVEECGCT
Key: 3.4
